meta.source: patent US9029536B2

target: Human PDE10A enzyme (Homo sapiens); construct: Sf9 or COS-7 cells transfected with the full-length gene; His-tag; made in house; host or cells: Sf9 or COS-7 cells; assay: PDE enzyme inhibition (SPA, [3H]cGMP); type: biochemical; details: 1 μM compound, [3H]cGMP substrate
// reported inhibition at 1 µM per item
Reply numerically in %, unit not repeated.

>  <molecule>
CCn1nc(-c2ccc(Oc3nc4ccccc4[nH]3)cc2)c2ncccc21

>  <recorded-measurement>
97.7

$$$$
>  <molecule>
Cn1nc(-c2ccc(Oc3nc4cccnc4n3C)cc2)c2ncc(F)cc21

>  <recorded-measurement>
95

$$$$
>  <molecule>
CCn1nc(-c2ccc(Oc3nc4ccccc4[nH]3)nc2)c2ncccc21

>  <recorded-measurement>
99

$$$$

Notebook: "CC(C)n1nc(-c2ccc(Oc3nc4cccnc4n3C)cc2)c2ncc(F)cc21" , inhibition at 1 µM read as 101

Notebook: CCn1nc(-c2ccc(C3CCn4c3nc3ccccc34)cc2)c2ncccc21 (stereo not shown) , inhibition at 1 µM read as 99

Notebook: "COCCn1c(Oc2ccc(-c3nn(C(C)C)c4cccnc34)cc2)nc2cccnc21" , inhibition at 1 µM read as 93

Notebook: "CC(C)n1nc(-c2ccc(Oc3nc4cccnc4n3C)cc2)c2ncccc21" , inhibition at 1 µM read as 100

---

// reported inhibition at 1 µM per item
target: Human PDE10A enzyme (Homo sapiens); construct: Sf9 or COS-7 cells transfected with the full-length gene; His-tag; made in house; host or cells: Sf9 or COS-7 cells; assay: PDE enzyme inhibition (SPA, [3H]cGMP); type: biochemical; conditions: 1 μM compound, [3H]cGMP substrate
Where a name gives a salt, the structure may show the parent alone.
Reply numerically in %, unit not repeated.

Consider the worked cases shown below.
>  <compound>
CCn1nc(-c2ccc(Oc3nc4cccnc4n3CCOC)cc2)c2ncccc21

>  <measured-parameter>
inhibition at 1 µM

>  <result-units>
%

>  <recorded-measurement>
105

$$$$
>  <compound>
CCn1nc(-c2ccc(Oc3nc4cccnc4n3CCOC)cc2)c2ncc(F)cc21

>  <measured-parameter>
inhibition at 1 µM

>  <result-units>
%

>  <recorded-measurement>
104

$$$$
>  <compound>
CCn1nc(-c2ccc(Oc3nc4cccnc4n3C)cc2)c2ncncc21

>  <measured-parameter>
inhibition at 1 µM

>  <result-units>
%

>  <recorded-measurement>
103

$$$$

Notebook: CCn1nc(-c2ccc(Oc3cn4ccccc4n3)cc2)c2ncccc21 [Example 8, hydrochloride] , inhibition at 1 µM read as 100

Notebook: "COCCn1c(Oc2ccc(-c3nn(C)c4cc(F)cnc34)cc2)nc2cccnc21" , inhibition at 1 µM read as 100

---

molecular target: Human PDE10A enzyme (Homo sapiens, UniProt Q9Y233); construct: Sf9 or COS-7 cells transfected with the full-length gene; His-tag; made in house; host or cells: Sf9 or COS-7 cells; experiment: PDE enzyme inhibition (SPA, [3H]cGMP); type: biochemical; conditions: 1 μM compound, [3H]cGMP substrate
Sequence (Q9Y233 267-1055): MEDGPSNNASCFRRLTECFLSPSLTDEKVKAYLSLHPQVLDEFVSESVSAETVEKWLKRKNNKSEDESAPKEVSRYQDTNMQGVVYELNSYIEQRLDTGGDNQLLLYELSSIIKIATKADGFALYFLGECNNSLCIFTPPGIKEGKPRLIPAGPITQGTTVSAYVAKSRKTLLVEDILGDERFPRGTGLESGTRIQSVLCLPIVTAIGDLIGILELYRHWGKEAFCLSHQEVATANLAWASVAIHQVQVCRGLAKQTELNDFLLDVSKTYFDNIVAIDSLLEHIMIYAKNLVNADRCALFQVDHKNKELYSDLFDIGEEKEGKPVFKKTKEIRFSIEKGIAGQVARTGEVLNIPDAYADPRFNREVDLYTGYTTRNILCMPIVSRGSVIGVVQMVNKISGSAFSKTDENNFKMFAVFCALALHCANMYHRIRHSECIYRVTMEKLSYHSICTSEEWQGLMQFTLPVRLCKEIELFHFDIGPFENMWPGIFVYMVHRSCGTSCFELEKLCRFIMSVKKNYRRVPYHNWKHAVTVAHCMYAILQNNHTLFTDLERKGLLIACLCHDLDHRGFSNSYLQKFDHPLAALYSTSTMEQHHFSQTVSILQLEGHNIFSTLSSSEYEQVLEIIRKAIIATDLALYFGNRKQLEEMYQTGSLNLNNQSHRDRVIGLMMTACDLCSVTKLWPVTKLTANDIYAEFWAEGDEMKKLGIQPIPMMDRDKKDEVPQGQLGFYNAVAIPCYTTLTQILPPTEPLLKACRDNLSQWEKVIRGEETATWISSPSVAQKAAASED
measured-parameter: inhibition at 1 µM (%)
Reply numerically in %, unit not repeated.

Notebook: "CCn1nc(-c2ccc3c(c2)CCN3c2nc3ccccc3[nH]2)c2ncccc21" , inhibition at 1 µM read as 101

Notebook: "COCCn1c(Oc2ccc(-c3nn(CC(F)F)c4cccnc34)cc2)nc2cccnc21" , inhibition at 1 µM read as 101

Notebook: "Cn1nc(-c2ccc(Oc3nc4cccnc4n3C)cc2)c2ncccc21" , inhibition at 1 µM read as 107
